- ASSAY TARGET: hGLP-1R (Homo sapiens)
- Sequence (P43220 24-463): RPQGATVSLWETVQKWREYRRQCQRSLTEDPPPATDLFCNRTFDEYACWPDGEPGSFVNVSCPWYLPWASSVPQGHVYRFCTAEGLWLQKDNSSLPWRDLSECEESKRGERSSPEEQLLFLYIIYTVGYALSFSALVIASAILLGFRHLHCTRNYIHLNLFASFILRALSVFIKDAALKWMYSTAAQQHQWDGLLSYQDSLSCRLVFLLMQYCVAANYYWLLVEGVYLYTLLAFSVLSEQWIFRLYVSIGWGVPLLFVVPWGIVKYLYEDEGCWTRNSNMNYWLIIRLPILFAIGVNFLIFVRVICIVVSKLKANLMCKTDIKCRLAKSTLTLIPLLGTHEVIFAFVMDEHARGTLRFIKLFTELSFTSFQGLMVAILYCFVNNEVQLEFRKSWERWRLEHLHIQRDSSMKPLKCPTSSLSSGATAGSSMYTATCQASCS
- ASSAY REMARKS: Functional cAMP activity in the presence of 1% HSA
- Type: cell-based
- RUN PARAMETERS: read-out: cAMP Rel EC50, hGLP-1R
Starred links: 1 amine or outer side, 2 acyl side, 3 side chain; linkers in the order of their positions; H or OH if unused. Non-standard residues stand in square brackets, D forms with d. Groups on a side chain read outwards from the residue. *: point of attachment. C20 diacid = O=C(O)CCCCCCCCCCCCCCCCCCC(=O)*; C18 diacid = O=C(O)CCCCCCCCCCCCCCCCC(=O)*; αMePhe(2-F) = C[C@](N)(Cc1ccccc1F)C(=O)O; γGlu = O=C(O)[C@H](CCC(=O)[*:2])N[*:1]; αMe4Pal = C[C@](N)(Cc1ccncc1)C(=O)O; αMeY = C[C@](N)(Cc1ccc(O)cc1)C(=O)O; 4Pal = N[C@@H](Cc1ccncc1)C(=O)O; αMeL = CC(C)C[C@](C)(N)C(=O)O; αMeS = C[C@](N)(CO)C(=O)O; Orn = NCCC[C@H](N)C(=O)O; Dap = NC[C@H](N)C(=O)O; AEEA = NCCOCCOCC(=O)O; Aib = CC(C)(N)C(=O)O
Sorting guide: entries reporting EC50 beneath 60 nM go in the label 1 pile, the rest go in the label 0 pile.

SUBSTANCE	ASSAY TARGET	ASSIGNED LABEL
H-Y[Aib]QGTFTSDFS[Orn][αMeL]LDKK([AEEA-AEEA-γGlu-C18 diacid])AQ[Aib]AFIEYLLE[dA]GPSSG[4Pal]PPPSG[4Pal]-NH2 [Example 258]	hGLP-1R (Homo sapiens)	label 0
H-Y[Aib]QGTFTSDYSI[αMeL]LDKQAAK([AEEA-AEEA-γGlu-C20 diacid])QFVEWLIA[Aib]GPSSGEPPPAEG-NH2 [Example 334]	hGLP-1R (Homo sapiens)	label 0
H-Y[Aib]QGTFTSDFSK[αMeL]LDKK([AEEA-γGlu-C20 diacid])AQ[Aib]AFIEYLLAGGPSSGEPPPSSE-NH2 [Example 3]	hGLP-1R (Homo sapiens)	label 0
H-Y[Aib]QGTFTSDFS[Orn][αMeL]LDKK([AEEA-γGlu-C18 diacid])AQ[Aib]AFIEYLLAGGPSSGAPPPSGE[AEEA]-NH2 [Example 91]	hGLP-1R (Homo sapiens)	label 0
H-Y[Aib]QGT[αMePhe(2-F)]TSD[4Pal]SILLDKK([γGlu-γGlu-C18 diacid])AQ[Aib]AFIE[αMeY]LEEGGPSSGAPPPSGGGE-NH2 [Example 668]	hGLP-1R (Homo sapiens)	label 1
H-Y[Aib]QGTFTSDFSK[αMeL]LDKK([AEEA-γGlu-C20 diacid])AQ[Aib]AFIEYLLEGGPSSGAPPP[γGlu]EG-NH2 [Example 52]	hGLP-1R (Homo sapiens)	label 0
H-Y[Aib]QGT[αMePhe(2-F)]TSD[4Pal]SI[αMeL]LD[Orn]K([AEEA-γGlu-C18 diacid])AQ[Aib][Orn]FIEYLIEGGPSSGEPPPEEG-NH2 [Example 477]	hGLP-1R (Homo sapiens)	label 1
H-Y[Aib]QGT[αMePhe(2-F)]TSD[4Pal][αMeS]I[αMeL]LD[Orn]K([γGlu-γGlu-C18 diacid])AQ[αMe4Pal]EFI[dE][αMeY]LIEGGPSSGAPPPSGGGEE-NH2 [Example 1218]	hGLP-1R (Homo sapiens)	label 1
H-Y[Aib]QGTFTSDFS[Dap][αMeL]LDKK([AEEA-γGlu-C18 diacid])AQ[Aib]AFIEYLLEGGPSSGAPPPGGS-NH2 [Example 68]	hGLP-1R (Homo sapiens)	label 0
H-Y[Aib]QGT[αMePhe(2-F)]TSD[4Pal][αMeS]I[αMeL]LD[Orn]K([AEEA-γGlu-C18 diacid])AQ[αMe4Pal]EFI[dE][αMeY]LIEGGPSSGAPPPGGE-NH2 [Example 1144]	hGLP-1R (Homo sapiens)	label 1
